# Tested on: NADH oxidase (complexes I, III and IV)
# test description: NADH oxidase activity (complexes I, III and IV) in submitochondrial particles
# Type: biochemical, bovine
# assay conditions: 5 μM
This listing pairs compounds with measured NADH oxidase activity (Complex I, III, IV) %.
observed property: NADH oxidase activity (Complex I, III, IV) % (%)

CCCCCCCCCCCCCC1=C(OC)C(=O)C=C(NCCCC(=O)OC(C)(C)C)C1=O ... 77
CCCCCCCCCCCCCC1=C(O)C(=O)C=C(N(C)C)C1=O ... 6.6
CCCCCCCCCCCCCC1=C(O)C(=O)C=C(NCCCCCC)C1=O ... 39
CCCCCCCCCCCCCC1=C(O)C(=O)C=C(NCCCC(=O)O)C1=O ... 62
CCCCCCCCCCCCCC1=C(OC)C(=O)C=C(NCCCC(=O)OCCCCCC)C1=O ... 27
CCCCCCCCCCCCCC1=C(OC)C(=O)C=C(NCCCC(=O)OCc2ccccc2)C1=O ... 48
CCCCCCCCCCCCCC1=C(OC)C(=O)C=C(N(C)C)C1=O ... 34
CCCCCCCCCCCCCC1=C(O)C(=O)C=C(N(C)CCCC(=O)OCCCCCC)C1=O ... 36
CCCCCCCCCCCCCC1=C(OC)C(=O)C=C(N(C)CCCC(=O)OCCCCCC)C1=O ... 33
CCCCCCCCCCCCCC1=C(OC)C(=O)C=C(NCCCCCC)C1=O ... 47

Where do the numbers come from? From patent US9957214B2.
